Test details: P-glycoprotein substrates identified in KB-3-1 adenocarcinoma cell line, qHTS therapeutic library screen (AID 1346986); further: nearly all actives have a fitted effect of over 60% in size
Experimental parameters: KB-3-1 parental cells viability, CellTiter-Glo, 72 h; series mostly up to 44.5 µM
Results filed as inconclusive are left out. Activity calls are given as the source filed them. The call rests on the fitted dose curve; in most records, active means well fitted inhibition curve with a large enough effect; inconclusive means small, poorly fitted or top-dose-only effect; inactive means no such curve, though single readings can be large or run the other way.
Measured parameter: outcome

Worked examples, 5 molecules total:
CC/C=C\C/C=C\C/C=C\CCCCCCCC(=O)OCC(O)COC1OC(CO)C(O)C(O)C1O (stereo not drawn) | inactive
CC(C)(C)NS(=O)(=O)c1cncc(-c2cc(F)c3nc(N)nn3c2)c1 | inactive
CC(=O)O[C@@H]1c2c3c(cc(O)c2C(=O)O[C@@H]1C)O[C@@]1(C)[C@@H](O)C[C@H]2C(C)(C)C(=O)C=C[C@]2(C)[C@@H]1C3 | inactive
CC1(C)CC[C@]2(C(=O)O[C@@H]3O[C@H](CO)[C@@H](O)[C@H](O)[C@H]3O)CC[C@]3(C)C(=CCC4[C@@]5(C)C[C@@H](O)[C@H](O)C(C)(C)C5[C@H](O)C[C@]43C)[C@@H]2[C@@H]1O (stereo partly drawn) | inactive
COc1cc(C(=O)O)ccc1OC1OC(CO)C(O)C(O)C1O (stereo not drawn) | inactive

For the molecule "CCOCc1cc(OC)c(-c2ccc(C[C@H](NC(=O)c3c(F)cccc3F)C(=O)O)cc2)c(OC)c1" , what outcome is on record?
inactive

Recorded outcome of CC1CCC23COC(=O)C2=CC(O)CC3C1(C)CCC1=CC(O)OC1=O (stereo not drawn) , please.
inactive

Entry C=C1C(O)C[C@@H]2C(C(=O)O)=CO[C@@H](O[C@@H]3O[C@H](CO)[C@@H](O)[C@H](O)[C@H]3OC(=O)c3ccc(O)cc3)[C@H]12 (stereo partly drawn) : reported outcome = ?
inactive

* * *

Tested on: CRL-7250
Test details: Cytotoxic Profiling of Annotated Libraries Using Quantitative High-Throughput Screening (AID 1296008); further: nearly all actives have a fitted effect of over 60% in size; on max response: on the % scale 0 is the no-effect control and ±100 the full control effect
Experimental parameters: Five cell lines viability, CellTiter-Glo ATP luminescence, 48-72 h; stronger effect = lower value
Records with an inconclusive call do not appear.
Measured parameter: max response (%)
Answer format: numeric, % implied, no suffix.

Sample "OC[C@H]1O[C@@H](OCCc2ccccc2)[C@H](O[C@@H]2OC[C@](O)(CO)[C@H]2O)[C@@H](O)[C@@H]1O" — what was its max response?
-6.82

For the compound shown here, "COc1nc2sc(C(=O)NC3CC3)c(N)c2c(C)c1Cl" , give the reported max response.
-8.27

Which max response is listed for C=C1C(O)C[C@@H]2C(C(=O)O)=CO[C@@H](O[C@@H]3O[C@H](CO)[C@@H](O)[C@H](O)[C@H]3OC(=O)c3ccc(O)cc3)[C@H]12 (some centres undefined) ?
-1.69

Looking for the measured max response of CCNC(=O)C1OC(n2cnc3c(N)nc(NCCc4ccc(CCC(=O)O)cc4)nc32)C(O)C1O (centres undefined) , can you help?
-14.2

What value of max response has been reported for the following compound? "Cc1[nH]c2ccccc2c1CCNC(=O)c1ccccc1F"
-5.45

Consider the compound shown here: O=C(OCC1=CC(O)C2C=CO[C@@H](O[C@@H]3O[C@H](CO)[C@@H](O)[C@H](O)[C@H]3O)C12)c1ccccc1 (some centres undefined) What is its recorded max response?
-3.02

Can you share its max response? I mean this compound: "COc1cc(/C=C/CO)cc(OC)c1O[C@@H]1O[C@H](CO[C@@H]2O[C@H](CO)[C@@H](O)[C@H](O)[C@H]2O)[C@@H](O)[C@H](O)[C@H]1O"
3.07

Suppose we examine the compound "CC(C)CC(=O)O[C@@H]1OC=C(CO[C@@H]2O[C@H](CO)[C@@H](O)[C@H](O)[C@H]2O)[C@H]2[C@@H]3O[C@H]3[C@@](O)(CO)[C@@H]12" ; what max response value has been reported?
-0.109

May I ask what max response has been recorded for "O=C(O)COCCN1CCN([C@H](c2ccccc2)c2ccc(Cl)cc2)CC1" ?
2.26

Consider the compound "Nc1nc2c(ncn2[C@@H]2O[C@H](CO)[C@@H](O)[C@H]2O)c(=O)[nH]1" and give its measured max response.
-5

What max response value was documented for this compound, "C=C1C[C@]23C[C@H]1CC[C@H]2C1=C[C@H]2OC(=O)[C@@](C)([C@H]1[C@@H]3C(=O)O)[C@H]2O" ?
2.1

Item under review: C[C@@H]1O[C@@H](O[C@@H]2CO[C@@H](O[C@H]3CC[C@@]4(C)C(CC[C@]5(C)C4CC=C4[C@@H]6CC(C)(C)CC[C@]6(C(=O)O[C@@H]6O[C@H](CO)[C@@H](O)[C@H](O)[C@H]6O)CC[C@]45C)[C@]3(C)CO)[C@H](O)[C@H]2O[C@@H]2O[C@H](CO)[C@@H](O)[C@H](O)[C@H]2O)[C@H](O)[C@H](O)[C@H]1O (some centres undefined) . Reported max response?
-2.09

Look up max response for this compound: "C=CC(C)(C)c1[nH]c2ccccc2c1C[C@@H]1NC(=O)[C@H](Cc2c[nH]c3ccccc23)NC1=O"
3.43

Requested field: max response. Item: "CC1(C)[C@@H](O)CC[C@]2(C)[C@H]3CC=C4[C@@H]5C[C@](C)(C(=O)O)CC[C@]5(C)CC[C@@]4(C)[C@]3(C)CC[C@@H]12"
-5.83

Look up max response: C/C(=C/CO)CC[C@@H]1[C@@](C)(O)CCC2C(C)(C)CCC[C@]21C (some centres undefined)
1.57

max response for CC1=CC2/C=C(\C)CC[C@@H](O)[C@@H](O)[C@@H]3O[C@@H]3C(=O)[C@]23C(=O)N[C@@H](CC(C)C)[C@@H]3[C@@H]1C (some centres undefined) ?
-29.8

Using the record for "Cc1ccc(-c2c(C(=O)CF)n(CCCO)c3ncnc(N)c23)cc1" , report its max response.
-0.58

Name the recorded max response for C/C=C(\C)C(=O)O[C@H]1[C@@H](O[C@]2(COC(=O)CC(C)C)O[C@H](COC(=O)C(C)CC)[C@@H](OC(C)=O)[C@@H]2O)O[C@H](COC(C)=O)[C@@H](O)[C@@H]1O (some centres undefined) .
0.451

Entry C=C1CCC2C(C)(C)C(O)CCC2(C)C1CCC(C)CCO (centres undefined) has what max response?
-1.18

So what's the measured max response for this one? CC(C)CC1NC(=O)C(C)NC(=O)C(CC(C)C)OC(=O)CCCNC1=O (centres undefined)
-2.1

Field request: max response | item: CC1(O)CCCC2(C)C1CCC13CC(CO)C(CCC12)C3 (centres undefined)
-2.17

Would you kindly share the measured max response for CC(=O)N1CCc2ccc(O)c(OC3OC(COC4OCC(O)(CO)C4O)C(O)C(O)C3O)c2C1Cc1ccc(O)cc1 (centres undefined) ?
-12.6

Return reported max response; argument: C/C(=C\C=C\C(C)C1CCC2(C)C3CCC4C(C)(C)C(=O)CCC45CC35CCC12C)C(=O)O (centres undefined)
-5.15

Given "C=C(C)[C@@H]1CC[C@]2(C)CC[C@]3(C)[C@H](CC[C@@H]4[C@@]5(C)CC[C@@H](O)C(C)(C)[C@@H]5CC[C@]43C)[C@@H]12" , state its recorded max response.
-1.57

Which max response value is on record for CC(C)CC1NC(=O)C2CC3(O)c4ccccc4NC3N2C1=O (centres undefined) ?
-2.34

# query: max response of entry CC1OC(OC2C(OC3C(O[C@H]4CC[C@@]5(C)C(CC[C@]6(C)C5C(=O)C=C5C7CC(C)(C)CC(O)[C@]7(C)CC[C@]56C)C4(C)C)OC(C(=O)O)C(O)C3O)OCC(O)C2O)C(O)C(O)C1O (some centres undefined)
-0.894

Record request: max response value, item Cc1noc(=O)c2ccc(NC(=O)C(O)(CC(C)(C)c3cccc4c3OCC4)C(F)(F)F)cc12 (centres undefined)
3.52

Look up max response: CC1OC(OC2C(O)C(OC3CCC4(C)C(CCC5(C)C4CC=C4C6CC(C)(COC7OC(CO)C(O)C(O)C7O)CC(O)C6(C)CCC45C)C3(C)C)OC(C(=O)O)C2O)C(O)C(O)C1OC1OCC(O)C(O)C1O (centres undefined)
3.82

Requested read-out: max response. Entry: "CNC(=S)NS(=O)(=O)c1cc(CCNC(=O)c2cc(Cl)ccc2OC)ccc1OC"
3.39

* * *

For each of the compounds below, state its Potency.
System: HEK293
Test details: Cytotoxic Profiling of Annotated Libraries Using Quantitative High-Throughput Screening (AID 1296008); further: nearly all actives have a fitted effect of over 60% in size; further: potency means the concentration at half of the fitted maximal effect
Experimental parameters: Five cell lines viability, CellTiter-Glo ATP luminescence, 48-72 h
Results filed as inconclusive are left out. Activity calls are given as the source filed them. Calls follow the shape of the dose curve; as a rule, active = well fitted inhibition curve with a large enough effect; inconclusive = small, poorly fitted or top-dose-only effect; inactive = flat fitted curve, though single readings scatter.

Returns the measured Potency for the input compound. Input: Cc1c(C(=O)Nc2ccc(N3CC(C)OC(C)C3)nc2)cccc1-c1ccc(OC(F)(F)F)cc1 (stereo not given)
9.2 µM (active)

Need Potency of Cc1ccc(C(=O)N(CCCN)C(c2nc3cc(Cl)ccc3c(=O)n2Cc2ccccc2)C(C)C)cc1 (stereo not given) , thanks.
0.0092 µM (active)

Sample "COc1c(Nc2ncc(Cl)c(N[C@H]3[C@@H](C(N)=O)[C@@H]4C=C[C@H]3C4)n2)ccc2c1CC[C@@H](N1CCOCC1)CC2" — what was its Potency?
3.66 µM (active)

Record request: Potency value, item "COc1cc2ncnc(Nc3ccc(F)c(Cl)c3)c2cc1NC(=O)/C=C/CN1CCCCC1"
7.31 µM (active)

Would you mind telling me what Potency value was observed for "CCS(=O)(=O)N1CCN(c2ccc(Nc3ncc(C(N)=O)c(NC4CC4)n3)cc2)CC1" ?
7.31 µM (active)

Find the recorded Potency belonging to "C=CC(=O)Nc1cccc(Nc2nc(Nc3ccc(N4CCN(C(C)=O)CC4)cc3OC)ncc2C(F)(F)F)c1" and report it.
6.51 µM (active)

Could you tell me which Potency is on file for CC1COC(Nc2ccc3ncnc(Nc4ccc(OCc5nccs5)c(Cl)c4)c3c2)=N1 (stereo not given) ?
11.6 µM (active)

Could you tell me which Potency is on file for C[C@@H]1O[C@@H](O[C@H]2[C@H](O)[C@@H](O)[C@H](O[C@H]3[C@H](O[C@H]4CC[C@@]5(C)C(=CC[C@@H]6C5CC[C@]5(C)[C@@H]7[C@H](C[C@@H]65)O[C@]5(CC[C@@](C)(CO[C@@H]6O[C@H](CO)[C@@H](O)[C@H](O)[C@H]6O)O5)[C@H]7C)C4)O[C@H](CO)[C@@H](O)[C@@H]3O)O[C@@H]2CO)[C@H](O)[C@H](O)[C@H]1O (stereo not given in full) ?
1.23 µM (active)

So what's the measured Potency for this one? "O=C(Nc1ccc(Cl)cc1F)c1ccccc1O"
16.4 µM (active)

Please report the recorded Potency for "C=C1C(=O)O[C@@H]2C/C(C)=C\C(=O)/C=C(\C)[C@@H](OC(=O)/C(C)=C\C)[C@H](O)[C@@H]12" .
1.61 µM (active)

Sample "CC(=O)SCC(=O)c1ccc(NS(=O)(=O)c2ccc(OCCCN(C)C)cc2)nc1" — what was its Potency?
7.31 µM (active)

What value of Potency has been recorded for this entry: "CS(=O)(=O)N1CCC(NC(=O)c2[nH]ncc2NC(=O)c2c(Cl)cccc2Cl)CC1"
1.16 µM (active)

Could you share which Potency value was measured for "Cc1cc(C)cc(C(=O)NOCCCCCC(=O)NO)c1" ?
1.64 µM (active)

Which Potency value belongs to "CNS(=O)(=O)c1ccccc1Nc1nc(Nc2ccc(N3CCN(C)CC3)cc2OC)ncc1Cl" ?
1.3 µM (active)
